Reported IC50 values follow for various compounds
biological target: Glycogen synthase kinase-3 (Sus scrofa, UniProt B2LUN4+I6LNT8); experiment: Inhibition of porcine brain GSK-3alpha/beta using YRRAAVPPSPSLSRHSSPHQpSEDEEE as substrate and [gamma-33P]-ATP after 30 mins by scintillation counting
Give the value in µM but do not write µM after it.

Below are worked cases with known answers.
O=C(Nc1cc2ccccc2cn1)Nc1cccc2c1C1CCCCN1C2=O (stereo unspecified) :: 0.17
Cn1ccc(NC(=O)Nc2cccc3c2C2CCCCN2C3=O)n1 (stereo unspecified) :: 0.31
O=C(Nc1cccc(Br)n1)Nc1cccc2c1C1CCCCN1C2=O (stereo unspecified) :: 0.043
COc1cccnc1NC(=O)Nc1cccc2c1C1CCCCN1C2=O (stereo unspecified) :: 1.3

Now examine the next entry.
IC50 lookup needed for O=C(Nc1cc(Br)ccn1)Nc1cccc2c1C1CCCCN1C2=O (stereo unspecified) , thanks.
0.022

---

target: Cyclin-dependent kinase 5/CDK5 activator 1 (Homo sapiens, UniProt Q00535); assay: Inhibition of human recombinant CDK5/p25 using histone H1 as substrate and [gamma-33P]-ATP after 30 mins by scintillation counting
Sequence (Q00535 whole entry): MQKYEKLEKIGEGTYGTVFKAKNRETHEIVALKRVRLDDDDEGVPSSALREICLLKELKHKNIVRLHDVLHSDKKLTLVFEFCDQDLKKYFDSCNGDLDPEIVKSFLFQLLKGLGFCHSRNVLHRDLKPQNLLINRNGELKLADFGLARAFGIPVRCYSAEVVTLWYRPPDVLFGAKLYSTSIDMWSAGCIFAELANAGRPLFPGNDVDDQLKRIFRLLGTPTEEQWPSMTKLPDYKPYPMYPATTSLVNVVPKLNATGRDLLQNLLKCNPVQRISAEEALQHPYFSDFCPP
Sequence (Q15078 whole entry, further chain): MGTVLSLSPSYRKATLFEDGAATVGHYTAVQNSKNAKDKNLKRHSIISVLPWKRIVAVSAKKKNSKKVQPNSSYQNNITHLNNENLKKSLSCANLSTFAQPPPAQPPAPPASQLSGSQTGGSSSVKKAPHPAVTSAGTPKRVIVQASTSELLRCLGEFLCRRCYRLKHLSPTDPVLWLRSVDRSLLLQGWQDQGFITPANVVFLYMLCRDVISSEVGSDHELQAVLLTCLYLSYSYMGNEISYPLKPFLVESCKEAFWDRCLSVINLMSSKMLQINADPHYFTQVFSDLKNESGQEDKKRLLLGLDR
Reported log10(IC50) values follow for various molecules
Note: values are log10 of IC50 expressed in nM.

Below are worked cases with known answers.
COc1cccnc1NC(=O)Nc1cccc2c1C1CCCCN1C2=O (centres undefined) :: 2.77
O=C(Nc1ccc(O)cn1)Nc1cccc2c1C1CCCCN1C2=O (centres undefined) :: 3.11
O=C(Nc1cccc(F)n1)Nc1cccc2c1C1CCCCN1C2=O (centres undefined) :: 1.95

Now examine the next entry.
log10(IC50) lookup needed for O=C(Nc1cc2ccccc2cn1)Nc1cccc2c1C1CCCCN1C2=O (centres undefined) , thanks.
1.83

---

molecular target: Dual specificity tyrosine-phosphorylation-regulated kinase 1A (Homo sapiens); experiment: Inhibition of human recombinant GST-fused DYRK1A expressed in Escherichia coli using KKISGRLSPIMTEQ as substrate and [gamma-33P]-ATP after 30 mins by scintillation counting
pIC50: −log10 of the molar value.
test.readout: pIC50

O=C(Nc1cccc2c1C1CCCCN1C2=O)Nc1ncccc1O (stereo unspecified) :: 5.74
O=C(Nc1cccc(N2CCCCC2)n1)Nc1cccc2c1C1CCCCN1C2=O (stereo unspecified) :: < 5.00

pIC50 lookup needed for O=C(Nc1ccc(Br)cn1)Nc1cccc2c1C1CCCCN1C2=O (stereo unspecified) , thanks.
< 5.00

Now the molecule O=C(Nc1ccc2cccc(O)c2n1)Nc1cccc2c1C1CCCCN1C2=O (stereo unspecified)
< 5.00

---

biological target: Glycogen synthase kinase-3 (Sus scrofa, UniProt B2LUN4+I6LNT8); assay: Inhibition of porcine brain GSK-3alpha/beta using YRRAAVPPSPSLSRHSSPHQpSEDEEE as substrate and [gamma-33P]-ATP after 30 mins by scintillation counting
One threshold, 800 nM, splits the recorded IC50 values: lower ones are t, equal or higher ones are f.

Cc1nc(NC(=O)Nc2cccc3c2C2CCCCN2C3=O)cs1 (centres undefined) :: t
O=C(Nc1cscn1)Nc1cccc2c1C1CCCCN1C2=O (centres undefined) :: t
O=C(Nc1ccc(Br)cn1)Nc1cccc2c1C1CCCCN1C2=O (centres undefined) :: t
O=C(Nc1ccc(-c2ccccc2)cn1)Nc1cccc2c1C1CCCCN1C2=O (centres undefined) :: t
O=C(Nc1cccc(F)n1)Nc1cccc2c1C1CCCCN1C2=O (centres undefined) :: t
O=C(Nc1ccccc1)Nc1cccc2c1C1CCCCN1C2=O (centres undefined) :: f

Quick check: does O=C(Nc1cccc2c1C1CCCCN1C2=O)Nc1nc(Cl)c(Cl)c(Cl)c1Cl (centres undefined) have IC50 under 800 nM?
f

Now the molecule O=C(Nc1ccc(O)cn1)Nc1cccc2c1C1CCCCN1C2=O (centres undefined)
f

Now the molecule O=C(Nc1ncccn1)Nc1cccc2c1C1CCCCN1C2=O (centres undefined)
t
